# cAMP EC50 annotations
- testedOn: T1, rat GIP receptor (rat, UniProt P43219 19-455)
- T1 sequence (looked up): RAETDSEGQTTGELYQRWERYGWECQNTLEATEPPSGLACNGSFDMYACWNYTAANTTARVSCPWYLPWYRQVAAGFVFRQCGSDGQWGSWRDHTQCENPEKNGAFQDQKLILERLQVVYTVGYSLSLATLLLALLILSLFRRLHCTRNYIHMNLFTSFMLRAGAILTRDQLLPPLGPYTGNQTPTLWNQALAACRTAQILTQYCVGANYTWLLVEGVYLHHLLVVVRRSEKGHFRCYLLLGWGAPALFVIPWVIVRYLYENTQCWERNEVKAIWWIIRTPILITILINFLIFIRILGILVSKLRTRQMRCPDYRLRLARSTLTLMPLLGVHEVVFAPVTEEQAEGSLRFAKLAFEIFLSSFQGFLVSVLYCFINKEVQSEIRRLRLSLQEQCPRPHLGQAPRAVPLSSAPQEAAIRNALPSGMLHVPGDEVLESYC
- method: cell-based or functional assay
Ends that are not written are not given here.
Reply numerically in pM, unit not repeated.

What the record says about IP370 (Fc fusion) YSEGTFTSLYSKLKEEEAVRLFIEWLLAGGGGGGSGGGGSGGGGSGGGGSATHTCPPC : cAMP EC50 is 130

The binder listed as IP236 (Fc fusion, cysteine pairing not given here; also: fused to IgG1-TM Fc) YSEGTFTSDYSKLLEEEAVRLFIEWLVKGPGGGGGSGGGGSGGGGSATHTCPPCPAPEF shows cAMP EC50 equal to 210

response.value for IP245 (Fc fusion) YSEGTFTSDYSIAMDEEAVRLFIEWLVKGPAAAGGSGSTASSGSGSATGGGGAATHTCPPCPAPEF (field: cAMP EC50) = 48000
